Data origin, for the record: patent US11344510B2

Molecular target: vesicular monoamine transporter 2 (VMAT2) (Homo sapiens, UniProt Q05940)
Construct: expressed in transfected cells
Sequence (Q05940 whole entry, species assumed): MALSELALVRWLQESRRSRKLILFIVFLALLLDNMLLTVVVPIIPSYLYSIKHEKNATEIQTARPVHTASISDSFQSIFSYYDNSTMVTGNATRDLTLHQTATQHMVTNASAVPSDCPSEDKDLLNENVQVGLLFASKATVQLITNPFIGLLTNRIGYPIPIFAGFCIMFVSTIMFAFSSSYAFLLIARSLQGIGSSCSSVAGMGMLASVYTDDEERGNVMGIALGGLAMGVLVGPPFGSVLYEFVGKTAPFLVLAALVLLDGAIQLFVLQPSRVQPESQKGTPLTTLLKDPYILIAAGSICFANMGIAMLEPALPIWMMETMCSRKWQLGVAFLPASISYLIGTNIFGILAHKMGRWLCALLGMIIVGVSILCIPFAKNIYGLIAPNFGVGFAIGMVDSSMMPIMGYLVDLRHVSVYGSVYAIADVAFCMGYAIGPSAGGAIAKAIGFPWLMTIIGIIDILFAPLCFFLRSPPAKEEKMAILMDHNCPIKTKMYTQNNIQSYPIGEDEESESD
Test: Fluorescent substrate uptake inhibition, VMAT2
Assay type: cell-based
Conditions: 10 μM, transfected cells

# Compound, Unit abbrev, inhibition at 10 µM
measured = [
    ("CNC1(c2ccc(C)cc2)CCCCC1=O (racemic)", "%", 48.1),
    ("O=C1CCCC[C@@]1(c1ccccc1)N1CCOCC1 [Compound 31S]", "%", -5.5),
    ("CC1CN(C2(c3ccccc3)CCCCC2=O)C1 (racemic)", "%", 31.9),
    ("CNC1(c2ccc(F)cc2)CCCCC1=O (racemic)", "%", 20.2),
    ("O=C1CCCC[C@]1(NCCO)c1ccccc1 [Compound 30S]", "%", 23.2),
    ("CC1CCN1C1(c2ccccc2)CCCCC1=O (centres unmarked) [Compound 128mix]", "%", 23.4),
    ("N[C@@]1(c2ccccc2)CCCCC1=O [Compound 11R, (R)-2-amino-2-phenyl-cyclohexan-1-one]", "%", 14.4),
    ("CN[C@]1(c2cccc(F)c2)CCCCC1=O [Compound 19S]", "%", -0.87),
    ("CC(C)N[C@]1(c2ccccc2)CCCCC1=O [Compound 28S]", "%", -32.7),
    ("NC1(c2ccc(F)cc2)CCCCC1=O (racemic)", "%", 17.1),
    ("[2H]C([2H])([2H])N[C@@]1(c2ccccc2)CCCCC1=O [Compound 88R]", "%", 20.2),
    ("O=C1CCCC[C@@]1(c1ccccc1)N1CCC1 [Compound 84S]", "%", 10.9),
    ("O=C1CCCC[C@]1(c1ccccc1)N1CCC1 [Compound 84R]", "%", 14.1),
    ("O=C1CCCC[C@]1(c1ccccc1)N1CCOCC1 [Compound 31R]", "%", -3.4),
    ("CN[C@@]1(c2ccccc2C)CCCCC1=O [Compound 38R]", "%", 2.9),
    ("Cc1ccc(C2(N)CCCCC2=O)cc1 (racemic)", "%", 41),
    ("O=C1CCCC[C@@]1(NCCF)c1ccccc1 [Compound 86R]", "%", -8.9),
    ("CCN(CC)[C@@]1(c2ccccc2)CCCCC1=O [Compound 25R]", "%", -10.3),
    ("CCN(CC)[C@]1(c2ccccc2)CCCCC1=O [Compound 25S]", "%", 1.7),
    ("CN[C@]1(c2ccccc2)CCCCC1=O [Compound 14S]", "%", 7.4),
]
